# Test system: SK-MEL-5
# ASSAY_NAME: NCI tumour cell line growth inhibition, 48 h
Activity calls are given as the source filed them. No stated cut-off is given here; in the data, active = GI50 up to about 1.1 µM and inactive = higher.
Please go through the items and note down their GI50.

Solved entries (count: 10):
INSERT INTO assay_data (molecule, metric, recorded_value) VALUES
  ('CC(C)(C)N1C(=O)c2ccccc2C1(O)C(F)(F)F (configuration not stated)', 'GI50', '> 100 µM (inactive)'),
  ('CN(C)Cc1cc(O)c(O)c(CN(C)C)c1', 'GI50', '29.4 µM (inactive)'),
  ('O=C(Nc1nccs1)c1cc(C2=CC=CC([N+](=O)[O-])C=C2)nc(S)n1 (configuration not stated)', 'GI50', '> 100 µM (inactive)'),
  ('Oc1ccc(-c2c3ccccc3c(-c3ccc(O)cc3)c3ccccc23)cc1', 'GI50', '> 100 µM (inactive)'),
  ('COC(=O)CN1CCN(c2cccc3c2CCCC3)CC1', 'GI50', '23.2 µM (inactive)'),
  ('CCOP(=O)(OCC)OC1C=CC2CCC1C2 (configuration not stated)', 'GI50', '> 100 µM (inactive)'),
  ('Brc1c(C#CCC(c2ccccc2)(c2ccccc2)c2ccccc2)ccc(C#CCC(c2ccccc2)(c2ccccc2)c2ccccc2)c1Br', 'GI50', '> 100 µM (inactive)'),
  ('O=C1Cc2ccccc2CCc2ccccc21', 'GI50', '> 100 µM (inactive)'),
  ('CCOC(=O)c1nc2ccc(C(F)(F)F)cc2nc1Oc1cc(OC)cc(OC)c1', 'GI50', '29 µM (inactive)'),
  ('Nc1ccc2c(c1)C(=O)c1ccc(F)cc1-2', 'GI50', '> 100 µM (inactive)');

Consider the following items and state reported GI50 for each.
1. CCN(CC)c1ccc2cc(C(=O)Nc3ccc(C)cc3)c(=N)oc2c1
2. C=C1CCOC2(C(O)C(C)(O)CO)NC(=O)C1(O)NC2=O (configuration not stated)

["> 100 µM (inactive)", "> 100 µM (inactive)"]
